assay: Antibiotic concentrations in porcine oral fluid after intramuscular application (UHPLC-MS/MS); assay type: in vivo; conditions: male, (Landrace × Yorkshire) × Duroc crossbred (DanBred sows), pig, intramuscular; oral fluid, pigs, i.m., time 10 d, posttreatment; read-out: Avarage Concentrations in oral fluid
Tag: Condition met if measured concentration at 10 d is not below 100 ng/mL, Condition not met if it is.

Illustrative cases are given below, each with its answer.
# COMPOUND, CATEGORY
rows = [
    ("C=C[C@]1(C)C[C@@H](OC(=O)CSCCN(CC)CC)[C@]2(C)[C@H](C)CC[C@]3(CCC(=O)[C@H]32)[C@@H](C)[C@@H]1O [TIAM, tiamulin]", "Condition met"),
    ("CC[C@H]1OC(=O)C[C@@H](O)[C@H](C)[C@@H](O[C@@H]2O[C@H](C)[C@@H](O[C@H]3C[C@@](C)(O)[C@@H](O)[C@H](C)O3)[C@H](N(C)C)[C@H]2O)[C@@H](CC=O)C[C@@H](C)C(=O)/C=C/C(C)=C/[C@@H]1CO[C@@H]1O[C@H](C)[C@@H](O)[C@@H](OC)[C@H]1OC [TYL, tylosin]", "Condition not met"),
    ("COc1cc(Cc2cnc(N)nc2N)cc(OC)c1OC [TRMP, trimethoprim]", "Condition not met"),
    ("CCC[C@@H]1C[C@@H](C(=O)N[C@@H]([C@H]2O[C@H](SC)[C@H](O)[C@@H](O)[C@H]2O)[C@@H](C)O)N(C)C1 [LIN, lincomycin]", "Condition met"),
]

Lab note: next compound to report on.
Incoming: Would you say COc1ncnc(NS(=O)(=O)c2ccc(N)cc2)c1OC [SDX, sulfadoxine] shows concentration at 10 d at minimum 100 ng/mL?
Outgoing: Condition met

Ref: paper PMC8879095
